Data origin: a collection of fitness landscapes (doi:10.1126/science.1257360)

Would you kindly list enrichment ratio for each of these variants?
B1: PhoQ; a variant is named by its letters at X, in order, P23837 (parent)
chain: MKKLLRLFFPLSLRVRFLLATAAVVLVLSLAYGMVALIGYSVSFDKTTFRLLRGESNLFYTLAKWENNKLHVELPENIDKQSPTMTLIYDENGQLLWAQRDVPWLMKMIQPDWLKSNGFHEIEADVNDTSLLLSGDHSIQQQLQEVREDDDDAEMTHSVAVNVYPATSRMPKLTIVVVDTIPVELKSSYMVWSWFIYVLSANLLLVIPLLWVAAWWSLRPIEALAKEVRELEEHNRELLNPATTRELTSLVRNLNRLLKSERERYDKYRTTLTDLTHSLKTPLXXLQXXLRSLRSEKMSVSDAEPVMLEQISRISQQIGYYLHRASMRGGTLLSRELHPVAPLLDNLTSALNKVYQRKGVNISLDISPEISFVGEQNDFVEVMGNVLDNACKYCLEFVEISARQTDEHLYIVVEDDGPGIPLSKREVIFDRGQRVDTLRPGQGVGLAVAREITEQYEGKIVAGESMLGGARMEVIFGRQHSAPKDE

# Variants of: B1
# testSummary: enrichment ratio after two sorts for PhoP signalling (ratio (wild type AVST 3.29)); higher = more functional
# settings: with PhoP (E. coli)
Whole data set: some 140,000 sequences, median “enrichment ratio after two sorts for PhoP signalling” near 0, cut for the highest 2% near 11. Only a selection was taken, and the highest values are over-represented in it overall.

Requested field: enrichment ratio. Item: AKMD
≤ 0.25

I would be grateful if you could share the reported enrichment ratio for RITI .
≤ 0.25

Which enrichment ratio value belongs to DNQN ?
≤ 0.25
